Where do the numbers come from? From PubChem BioAssay (NCI).

Tested on: HOP-92 NSCLC
Assay: NCI tumour cell line growth inhibition, 48 h
Assign true whenever TGI does not fall below 10 µM; assign false whenever it does.

Before answering, review these 2 worked examples.
[
  {
    "molecule": "c1cn2cc(-c3ccc4ncn(C5CCCCC5)c4c3)nc(-c3ccc4c(c3)ncn4C3CCCCC3)c2n1",
    "class-label": "false"
  },
  {
    "molecule": "CC(=O)NC1C(O)C(O)C(CO)OC1n1ncc(=O)[nH]c1=O (stereo unspecified)",
    "class-label": "true"
  }
]

Challenge: Hello, I need to know if c1cc(OCCN2CCCCC2)ccc1CNc1ccc2nc(CCC3CCCCC3)[nH]c2c1 has measured TGI not below 10 µM. Thanks!
Response given: false

Challenge: Hello, I need to know if O=C(Nc1cc[c]([Sb](=[O])([OH])[OH])cc1)c1ccccc1 has measured TGI not below 10 µM. Thanks!
Response given: true

Challenge: Hello, I need to know if NC(=S)N/N=C(\C(=O)Nc1cccc([N+](=O)[O-])c1)c1nc2ccc([N+](=O)[O-])cc2[nH]c1=O has measured TGI not below 10 µM. Thanks!
Response given: true
